Please respond with reported glycan array binding signal (z-score) for every item in the list.
biological target: Gal(b1-3)GlcNAc; experiment: glycan array binding signal (z-score within array); higher = stronger binding; conditions: glycan notation: IUPAC condensed, linker removed
The entries come from a sample that favours the strongest signals as a whole.
Give the figure only, with no unit attached.

Qu. Please give the measured glycan array binding signal (z-score) for this binder: AT1G15820(2) (Arabidopsis thaliana), Q9LMQ2 (protein) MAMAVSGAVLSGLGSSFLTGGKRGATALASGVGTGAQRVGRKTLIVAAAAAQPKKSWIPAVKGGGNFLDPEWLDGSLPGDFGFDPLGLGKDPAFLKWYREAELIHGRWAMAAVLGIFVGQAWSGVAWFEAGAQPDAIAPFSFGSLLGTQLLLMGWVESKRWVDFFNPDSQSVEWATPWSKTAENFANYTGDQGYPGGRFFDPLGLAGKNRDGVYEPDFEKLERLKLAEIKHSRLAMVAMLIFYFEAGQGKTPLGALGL
Ans. 0.12

Qu. Returns the measured glycan array binding signal (z-score) for the input binder. Input: Gal 8 (Homo sapiens), O00214_1 (protein) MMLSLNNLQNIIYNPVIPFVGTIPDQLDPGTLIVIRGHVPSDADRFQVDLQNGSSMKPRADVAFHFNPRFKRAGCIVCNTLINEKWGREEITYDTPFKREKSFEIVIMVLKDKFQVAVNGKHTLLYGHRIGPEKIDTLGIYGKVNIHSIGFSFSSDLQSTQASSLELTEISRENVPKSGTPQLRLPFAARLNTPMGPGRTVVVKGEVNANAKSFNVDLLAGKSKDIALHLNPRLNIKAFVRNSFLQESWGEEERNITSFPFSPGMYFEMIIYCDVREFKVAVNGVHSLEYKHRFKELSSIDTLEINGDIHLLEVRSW
Ans. -0.167

Qu. Entry LSectin (Mus musculus), Q8BNX1 (protein) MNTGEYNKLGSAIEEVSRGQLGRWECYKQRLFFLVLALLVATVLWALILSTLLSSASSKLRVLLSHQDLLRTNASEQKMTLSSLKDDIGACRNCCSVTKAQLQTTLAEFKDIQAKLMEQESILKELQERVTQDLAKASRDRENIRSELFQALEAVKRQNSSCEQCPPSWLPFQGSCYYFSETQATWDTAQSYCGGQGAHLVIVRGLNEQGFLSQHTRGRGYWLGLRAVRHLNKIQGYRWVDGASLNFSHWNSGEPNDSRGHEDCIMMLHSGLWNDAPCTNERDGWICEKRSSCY has what glycan array binding signal (z-score)?
Ans. -0.132

Qu. Can you share its glycan array binding signal (z-score)? I mean this binder: AT3G44510(29) (Arabidopsis thaliana), F4J341 (protein) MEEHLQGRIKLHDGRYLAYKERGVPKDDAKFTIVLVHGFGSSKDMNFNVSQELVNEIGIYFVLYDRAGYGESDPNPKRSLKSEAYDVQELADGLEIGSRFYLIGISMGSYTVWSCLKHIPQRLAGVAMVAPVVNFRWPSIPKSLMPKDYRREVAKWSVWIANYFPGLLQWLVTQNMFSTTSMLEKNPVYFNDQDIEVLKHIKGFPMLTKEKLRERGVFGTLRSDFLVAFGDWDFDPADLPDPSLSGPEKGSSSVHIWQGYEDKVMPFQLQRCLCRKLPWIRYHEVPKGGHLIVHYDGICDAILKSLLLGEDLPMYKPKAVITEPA
Ans. -0.484
